Target: T1, biotinylated recombinant human trimeric ARG2 enzyme (Avi-huARG2-His10) (human, UniProt P78540 23-354, biotinylated)
T1 construct: also called avi-Arg2-His10; bio-ARG2
T1 chain: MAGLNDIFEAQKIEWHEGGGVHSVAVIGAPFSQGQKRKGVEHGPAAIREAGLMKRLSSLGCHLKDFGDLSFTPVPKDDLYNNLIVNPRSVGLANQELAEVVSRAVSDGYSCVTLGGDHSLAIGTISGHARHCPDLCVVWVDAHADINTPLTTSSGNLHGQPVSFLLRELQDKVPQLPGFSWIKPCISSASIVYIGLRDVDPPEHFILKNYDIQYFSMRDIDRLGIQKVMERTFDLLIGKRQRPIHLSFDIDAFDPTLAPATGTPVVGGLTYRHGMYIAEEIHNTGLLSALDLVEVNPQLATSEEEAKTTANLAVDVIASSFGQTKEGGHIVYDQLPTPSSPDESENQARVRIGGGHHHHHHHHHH
Assay: BLI (OctetRED) extended assay, bio-ARG2 on streptavidin, Fab as analyte, 1:1 fit
Overview of recorded koff for various binders
Answer format: numeric, s⁻¹ implied, no suffix.

Would you please look over these solved cases?
>  <Binder>
C0021155 Fab (Fab, V domains shown, Human Fab) VH: EVQLLESGGGLVQPGGSLRLSCEASGFTFRYDYHVWVRQAPGKGLEWVSAISGSGGSTYYADPVKGRFTISRDNSKNTLYLQMNSLRAEDTAVYYCARLRADLGLYMDLWGRGTLVTVSS VL: RSVLTQPPSVSAAPGQKVTISCSGSSSNIGNHYVSWYQQLPGTAPKLLIYDTTVLSSGIPDRFSGSKSGTSATLGITGLQTGDEADYYCGTWDELTSNLVFGGGTRLTVL

>  <koff, s⁻¹>
5.67e-05

$$$$
>  <Binder>
C0021180 Fab (Fab, V domains shown, Human Fab) VH: EVQLLESGGGLVQPGGSLRLSCAASGFTFRYEVAAWVRQAPGKGLEWVSAISGPIPKGYYADSVKGRFTISRDNSKNTLYLQMNSLRAEDTAVYYCARLRADLGLYMDLWGRGTLVTVSS VL: QSVLTQPPTVSAAPGRKVTISCSGSSSNIGDHHVSWYQQLPGAAPKLLIYDTDHMASGIPDRFSGSRSGTSATLGITGLQTGDEADYYCGTWDSSLSALVFGGGTKLTVL

>  <koff, s⁻¹>
0.000122

$$$$
>  <Binder>
C0021177 Fab (Fab, V domains shown, Human Fab) VH: EVQLLESGGGLVQPGGSLRLSCAASGFTFRYEVAAWVRQAPGKGLEWVSAISGPAPKGYYADSVKGRFTISRDNSKNTLYLQMNSLRAEDTAVYYCARLRADLGLYMDLWGRGTLVTVSS VL: QSELTQPPTASAAPGQKVTISCSGSSSNIGNHYVSWYQQLPGTAPKLLIYDTTVLSSGIPDRFSGSKSGTSATLGITGLQTGDEADYYCGTWDELTSNLVFGGGTKLTVL

>  <koff, s⁻¹>
3.51e-05

$$$$
>  <Binder>
C0021144 Fab (Fab, V domains shown, Human Fab) VH: EVQLLESGGGLVQPGGSLRLSCAASGFTFRYDYHVWVRQAPGKGLEWVSAISGSGGSTYYADSVKGRFTISRDNSKNTLYLQMNSLRAEDTAVYYCARLRADLGLYMDLWGRGTLVTVSS VL: QSVLTQPPSVSAAPGQKVTVSCSGSSSNIGNHHVSWYQQLPGTAPKLLIYDTTVLSSGVPDRFSGSKSGTSATLGITGLQTGDEADYYCGTWDELTSNLVFGGGTKLTVL

>  <koff, s⁻¹>
6.59e-05

$$$$
>  <Binder>
C0021158 Fab (Fab, V domains shown, Human Fab) VH: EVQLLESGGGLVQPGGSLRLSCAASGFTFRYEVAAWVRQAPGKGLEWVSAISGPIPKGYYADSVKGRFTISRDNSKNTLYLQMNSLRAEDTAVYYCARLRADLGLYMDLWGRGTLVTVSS VL: QSVLTQPPSVSAAPGQKVTISCSGSSSNIGNHYVSWYQQLPGTAPKLLIYDNSERTAGVPDRFSGSKSGTSATLGITGLQTGDEADYYCGTWDELTSNLVFGGGTKLTVL

>  <koff, s⁻¹>
4.54e-05

$$$$

Now consider a different binder.
Q: So what's the measured koff for this one? C0021181 Fab (Fab, V domains shown, Human Fab) VH: EVQLLESGGGLVRPGGSLRLSCAASEFTFRYDYHVWVRQAPGKGLEWVSAISGSGGSTYYADSVKSRFTISRDNSKNTLYLQMNSLRAEDTAVYYCARLRADLGLYMDLWGRGTLVTVSS VL: QSVLTQPPSVSAAPGQKVAVSCSGSSSNIGSHYVSWYQQLPGTAPKLLIYDNSERTSGIPDRFSGSKSGTSATLGITGLQTGDEADYYCGTWDELTSNLVFGGGTRLTVL
A: 4.17e-05
